assay: yeast display, Sf9 membrane polyspecificity reagent, FACS + sequencing; frameworks hold sequencing errors

seq	polyreactivity (PSR sort gate)
QVQLVESGGGLVQAGGTLRLSSAASGFTFGNYAMGWYRQAPGKERELVAAISGRSGRTYYADSVKGRFTISRDNAKNTVYLQMISLKPEVTAVYYCAKKVFGWEYYYWGQGTQVTVSS	high polyreactivity
QVQLVESGGGLVQAGGSLRLSCAASGRIFDRNAMGWYRQATGKERELVARIDPGDDTNYADSVKGRFTISRDNAKNTVYLLMNSLKPEDTAVYYCATDPDYVLYRTAYYEYDYWGHGTQVTVSS	low polyreactivity
QVQLVESGGGLDQAGGSLLLSCAASGFTFGPYAMGWYRQAPGKERELVATIRSGYSTNYADSVKGRFTISRDNAKNTVYLQMNSLKPEDTAVYYFNREGWHYGPYGYWGQGTQVNVSS	low polyreactivity
QVQLVESGGGLVQAGCSLRLSCAASGRTFYHYGMGWYRQAPGKERELVAAINFSGGSTNYADSVKGRFTISRDNAKNTVYLQMNSLKTEDTAVYNCNKEGRPDRDYWGQGTQVTVSS	low polyreactivity
QVQLVESGGGLVPAGGSLRLSCAASGSIFYHNAMGWYRQAPGKERELVAAISYRTGRTYYADSVKGRFTISRDNAKNTVYLQMNSLKPEDTAVYYCAAPYSWGQATQVTVSS	high polyreactivity
QVQLVESGGGLVQAGGSLRLSCAASGRIFYTYAMGWYRQAPGKERELVAVISSGGSTNYADSVKGRFTISRDNAKNTVYLQMNSLKPEDTAVYYCAAYGTKWGRGFYITGYGYWGQGTQVTVSS	low polyreactivity
QVQLVESGGGLVQAGGSLRLSCAASGRTFDIYAMGWYRQAPGKERELVAAISSGGSTYYADSVKGRFTISRDNAKNTVYLQMNRLKPEDTAVYYCAVRWYDQVSRRGIGYYWGQGTQVTVSS	low polyreactivity
QVQLVESGGGLVQAGGSLRLSCAASGFTFGHYALGWYRQATGKERELVAAITRSGGNTYYADSVKGRFTISRYNAKNTVYLQMNSLKPEDTAVYYCAARLGWVYYSRSRYGYWGQGTQVTVSS	high polyreactivity
QVQLVESGGGLVQAGGSLRLSCAASGSTLFGYAMGWYRQAPGKEREFVAAISRSGGRTYYADSVKGRFTISRDNAKNTVYLQMNSLKPEDTAVYYCATVRRRLSLTYDYWGQGTQVTVSS	high polyreactivity
QVQLVESGGGLVQAGGSLRLSCAASGSIFFKYAMGWYRQAPGKEREMVAAITWSGGRTYYADSVKGRFTISRDNAKNTVYLQMNSLKPEDTAVYYCNAYSIGVAAADDYWGQGTQVTVSS	high polyreactivity
QVQLEESGGGLVQAGGSLRLSCAASGLTFRIYAMGWYRQAPGKERELVAAISYRGGSTYYADSVKGRFTISRDNAKNTVSLQMNSLKPEDTAVYYCAAGFVLNGIRYDFWGQGTQLTVSS	high polyreactivity
QVQLVESGGGLVQAGGSLRLSCAASGSTFDENAMGWYRQAPGKERELVAGITTNGGSTSYADSVKGRFTISRDNAKNTVYLQMNSLKPEDTAVYYCAKGLYVQFDYWGQGSQVTVSS	low polyreactivity
QLQLVESGGGIVQAGGRLRLSCAASGLIFYLYAMGWYRQAPGKERELVATITTGGRTNYADSVKGRFTISRDNAKISVYLQMNSLTPVDTAVYYCAATHRGQGGYYWGQGSQVTVSS	low polyreactivity
QVQLQESGGGLVQAGGSLRLSCAASGSILFSTLMGWSRQAPGKERELVATITTGTFTNYAGSVKGRFTISRDNAENTVYLQMNSLRPEDTAVYYSADYANHKAGFYYWGQGTQVTVSS	high polyreactivity
QVQLVESGGGLVQAGGSLRLSCAASGFTFYRNAMGWYRQAPGKEREVVAAISISGGSTYYADSVKGRFTISRDNAKNTVYLQMNSLKPEDTAVYYCAAYYYRDRYSRVKVTYWGLGTQVTVSS	high polyreactivity
QVQLVESGGGLVQAGGSLRLSCAASGFIFYRYAMGWYRQAPGKERELVAAISSGGGRTYYADSVKGRFTISRDNAKNTVYLQMNSLKPEDTAVYYCAKGYFWSSYVSSRYGSWGQGTQVTVSS	high polyreactivity
QVQLVESGGGLVQAGGSLRLSCAASGFTFGTNAMGWYSQAPGKERELVAAISGRVGSTYYADSVKGRFTISRDNAKNTVYFLMNSLKPEDTAVYYCAADTWKTWSPYLYYTYDSWGQGTQVTVSS	low polyreactivity
QVQLVESGGGLVLAGGRLRLSFAASGFIFYQYAKAWYRQATGKEWEFVAAISRNGGSTYYADSVKGRFTISRDNATNTVYLQMNSLKPEDTAVYYCNRDCGGLWSENGYWGQGPQVTVSS	high polyreactivity
QVQLVETRGGLVQAGGRLRLSCAASGGIFPVNAMGWYRQAPGKERELVAAISWSVGRTYYADSVKGRFTISRDNAKNTVYLQMISLKREDTAVYYCAAEWFGVYRRYKYDYCGQGTQVTVSS	low polyreactivity
QVQLVESGAGLVQAGGSLRLSCAASGFTFYPYAMGLYRQAPGKERELVAAINSGGSTYYADSVKGRFTISRDNAKNTVYLQMNSLKPEDTAVYYCAAYGKRGAVAFYYWGQGTQVTVSS	high polyreactivity
QVQLVESGGGLVQAGGSLRLNCAASGRISTYYVMGWYRQAPGKERELVAAINWSDGSTYYADSVKGRFTISRDNAKNTVYFQMNSLKPEDTAVYYCNVDAGVEGGTVDYWGQGTQVTVSS	low polyreactivity
